Item-by-item account of binding signal
Biological target: T1, UNK ZnF1-6 (called full-length) (human, UniProt Q9C0B0 30-357)
T1 sequence: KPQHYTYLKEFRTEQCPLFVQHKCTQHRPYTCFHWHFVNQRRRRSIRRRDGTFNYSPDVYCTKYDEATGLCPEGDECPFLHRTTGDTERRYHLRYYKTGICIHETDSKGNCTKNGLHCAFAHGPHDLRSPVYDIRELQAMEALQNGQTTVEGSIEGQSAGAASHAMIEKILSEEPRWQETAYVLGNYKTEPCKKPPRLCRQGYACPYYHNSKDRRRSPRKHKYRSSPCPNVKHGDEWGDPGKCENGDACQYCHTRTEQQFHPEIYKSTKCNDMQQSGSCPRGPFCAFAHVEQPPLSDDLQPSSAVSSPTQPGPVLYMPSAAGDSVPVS
Experiment: nsRBNS (natural sequence RNA bind-n-seq); RBNS binding buffer (assumed for nsRBNS): 25 mM Tris pH 7.5, 150 mM KCl, 3 mM MgCl2, 0.01% Triton X-100, 500 ug/ml BSA, 20 U/ml SUPERase-In, 4 C; UNK is unkempt and MSI1 is Musashi-1; names of the RNAs are library labels; protein concentration not given here; high values mean tight binding
In all, about 5,800 sequences were measured (“enrichment r”: median about 0.68, highest 2% from about 11 on). This is one part of a sample in which the highest values are shown more often than they occur.
ATTRIBUTE_MEASURED: binding signal (enrichment R)

1. chr11:20048915:20049016:+|CDS|ENSG00000166833|unk|total|mutant (ssRNA) RNA: GGGAGUUCUACAGUCCGACGAUCGAGCAGUGGGAGCAGCAGUCCUCUCUACAGCAAGAAUGUGGACCUCAACCAGUCUCCGCCCGCCUCCAGCCCCAGCUCAGCCCACUCGGCCCCUUCCAACAGCCUCACCUGGGGCACCAACAACAGAGGAUUGAGCAUCA: 0.913
2. ENSG00000124766:be:win_3501|3pUTR|ENSG00000124766|bound_else_gene|NA|bound_elsewhere_windowed (ssRNA) RNA: GGGAGUUCUACAGUCCGACGAUCAACUUGUAAACCACAUCUUUUUUGCACUUUUUUUAUAAGCAAAAACGUGCCGUUUAAACCACUGGAUCUAUCUAAAUGCCGAUUUGAGUUCGCGACACUAUGUACUGCGUUUUUCAUUCUCAACAGAGGAUUGAGCAUCA: 0.497
3. chr4:113382420:113382521:+|3pUTR|ENSG00000145362|msi1|FALSE|bound_elsewhere (ssRNA) RNA: GGGAGUUCUACAGUCCGACGAUCUCUUCAGGUCUUUAGAUCUUGGACAAGUUGGCAGGGUAUUUUAAAAGCUAUAACUACUGUAGUUUUCCAGUUUUCAUUGCUGCUUUAGCAAACCACGCUGUCUUACAGUGGUACUUUCUUCAACAGAGGAUUGAGCAUCA: 0.392
